Assay: inducers of MIN6 beta-cell proliferation, primary screen, ATP luminescence, uHTS (AID 2380);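 further: 0% = DMSO-treated cells in low-serum medium and 100% = 10% serum control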
Conditions: MIN6 cells proliferation, ATPlite luminescence, 48 h; at 10 µM; active compounds read high; 100% = growth in 10% serum; cells starved in 0.2% serum
Screen size: about 330,000 compounds; about 960 (0.29%) were called active. This is one part of a sample in which actives are shown more often than they occur.
proliferation listing for selected compounds.
Number in %, nothing else.

CCOC(=O)N1CCN(C(=O)c2ccc3nc4cc(Cl)ccc4c(=O)n3c2)CC1	-2.76
O=S(=O)(NCCOc1cccc2cccnc12)c1ccc(F)cc1	5.56
COCCCNC(=O)Cn1c(=O)n(Cc2ccccc2Cl)c(=O)c2cc(OC)c(OC)cc21	-2.84
COC(=O)c1ccc(C(NC(=O)OCc2ccccc2)/C(C)=C/[C@@H](C)C(=O)NCc2ccc(OC)c(OC)c2)cc1 (stereo partly specified)	-1.99
CCC(NC(=O)c1ccccc1NC(=O)c1ccccc1)C(=O)NNC(=O)CSc1nc2ccccc2o1 (stereo unspecified)	-0.4
CN1C(=O)[C@H]2[C@@H](C3CC3)N3C(=O)CN(Cc4ccccc4)C(=O)[C@@]3(C)[C@H]2C1=O	3.27
COc1ccc(N(CC(=O)Nc2cc(OC)ccc2OC)S(=O)(=O)c2c(C)noc2C)cc1	-0.48
Cc1ccc2c(c1)N(C(=O)CCC(=O)NCc1cccnc1)CCO2	1.08
CCOC(=O)C1(Cc2ccccc2C)CCCN(C(=O)CCc2c(C)noc2C)C1 (stereo unspecified)	0.64
CCCOC1CCCN(Cc2cn(C)nc2-c2ccccc2F)C1 (stereo unspecified)	1.33

Q: # return recorded proliferation for input O=S(=O)(NCCc1ccc(F)cc1)c1cccc2cccnc12
Result: 3.17

Q: # return recorded proliferation for input N#Cc1cccc(CN2CCC(=O)N([C@H](CO)c3ccccc3)CC2)c1
Result: 14.7

Q: # return recorded proliferation for input CN(C(=O)CSc1nnc(-c2n[nH]c3ccccc23)o1)c1ccccc1
Result: 0.29

Q: # return recorded proliferation for input CCOC(=O)c1c(NC(=O)CCl)sc(C(=O)N(CC)CC)c1C
Result: -3.42

Q: # return recorded proliferation for input O=C(c1ccc2c(c1)C(=O)N(c1ccc(Cl)cc1)C2=O)N1CCN(c2ccccn2)CC1
Result: 2.75

Q: # return recorded proliferation for input Cc1cc(C)c2c(-n3cccc3)c(NC(=O)OCc3ccccc3)sc2n1
Result: -5.05

Q: # return recorded proliferation for input CCOC(=O)c1sc(NC(=O)CCN2CCOCC2)c(C(=O)OCC)c1C
Result: -6.14

Q: # return recorded proliferation for input NC(=O)c1nsc(C(=O)N(CCCN2CCOCC2)C(C(=O)NC2CCCCC2)c2ccc(Cl)cc2)c1N (stereo unspecified)
Result: 0

Q: # return recorded proliferation for input CCCCOC(=O)Nc1sc2nc(C)cc(C)c2c1-n1cccc1
Result: 0.21

Q: # return recorded proliferation for input N#Cc1cccc(CN2CCC(=O)N(CCO)CC2)c1
Result: -4.43

Q: # return recorded proliferation for input O=C(O)c1cccc(S(=O)(=O)N2CC=C(c3ccccc3)CC2)c1
Result: 0.12

* * *

Assay: inducers of MIN6 beta-cell proliferation, primary screen, ATP luminescence, uHTS (AID 2380);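 further: 0% = DMSO-treated cells in low-serum medium and 100% = 10% serum control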
Settings: MIN6 cells proliferation, ATPlite luminescence, 48 h; at 10 µM; 100% = growth in 10% serum; cells starved in 0.2% serum
Among all 330,000 compounds or so, about 960 (0.29%) were called active.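 How the source made its calls: active means compounds whose signal lies at least 3.5 SD above the mean of all wells on their plate; inactive means the rest.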 This excerpt belongs to a sample that is enriched for actives.
Response enum: 1 (yes) = active, 0 (no) = inactive

COc1ccc(-n2nnnc2SCc2nc(N)nc(N3CCOCC3)n2)cc1	0 (no)
O=C(NCCCN1CCCCC1)C1CCCN(c2ncnc3c2nc2n3CCCCC2)C1 (stereo unspecified)	0 (no)
CC1(C)C2CC=C(/C=N/NC(=O)C3CC3)C1C2 (stereo unspecified)	1 (yes)
COc1ccc(-c2nnn(Cc3nc(N)nc(N4CCCCC4)n3)n2)cc1	1 (yes)
COc1ccc(CCC(=O)c2ccc(OC)cc2)cc1	1 (yes)
O=C(C1CCN(C2CCN(Cc3cccc4c3OCO4)CC2)CC1)N1CCOCC1	0 (no)

Q: Record lookup: outcome of this test for Cc1ccc(NC(=O)COC(=O)CNC(=O)c2ccc(Cl)cc2Cl)cc1S(=O)(=O)N1CCOCC1 ?
Result: 0 (no)

Q: Record lookup: outcome of this test for CC1(C)C2CC=C(/C=N/NC(=O)c3ccc(Cl)cc3)C1C2 (stereo unspecified) ?
Result: 0 (no)

Q: Record lookup: outcome of this test for O=C(NC(=S)Nc1cccc2c(O)cccc12)c1cccc(Br)c1 ?
Result: 0 (no)

Q: Record lookup: outcome of this test for O=C(CN1CCN(c2ccc(Cl)cc2)CC1)NCc1cccs1 ?
Result: 0 (no)

Q: Record lookup: outcome of this test for CN(CC(=O)Nc1c(Cl)cccc1Cl)C(=O)CC1OC(=O)c2ccccc21 (stereo unspecified) ?
Result: 0 (no)
